Each entry below lists one item and its recorded Ki value.
- Target under test: hCA VII (Homo sapiens)
- Sequence (P43166 whole entry): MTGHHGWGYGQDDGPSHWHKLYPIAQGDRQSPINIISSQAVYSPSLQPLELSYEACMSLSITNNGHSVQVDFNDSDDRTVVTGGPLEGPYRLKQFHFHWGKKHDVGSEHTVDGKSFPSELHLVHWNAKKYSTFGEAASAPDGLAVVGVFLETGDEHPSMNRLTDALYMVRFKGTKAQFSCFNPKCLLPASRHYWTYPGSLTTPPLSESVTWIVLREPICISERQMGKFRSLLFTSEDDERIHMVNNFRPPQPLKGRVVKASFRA
Report as a plain number; the unit nM is understood.

Here are 5 molecules together with their reported answers.
Molecule: COc1ccccc1NC(=O)N[C@@H]1CCN(c2ccc(S(N)(=O)=O)cn2)C1 [18a]
Quantity unit: nM
Reading: 68.7

Molecule: NS(=O)(=O)c1ccc(NC(=S)N[C@@H]2CCN(c3ccc(C(F)(F)F)cn3)C2)cc1 [39a]
Quantity unit: nM
Reading: 73.3

Molecule: NS(=O)(=O)c1ccc(N2CC[C@@H](NC(=O)Nc3ccc(Oc4ccccc4)cc3)C2)nc1 [13a]
Quantity unit: nM
Reading: 76.9

Molecule: NS(=O)(=O)c1ccc(N2CC[C@H](NC(=S)Nc3ccc(C4c5ccc(O)cc5Oc5cc(O)ccc54)c(C(=O)O)c3)C2)nc1 [17b]
Quantity unit: nM
Reading: 14.9

Molecule: NS(=O)(=O)c1ccc(N2CC[C@@H](NC(=O)Nc3ccccc3F)C2)nc1 [11a]
Quantity unit: nM
Reading: 187

Reading of Ki for NS(=O)(=O)c1ccc(NC(=S)N[C@@H]2CCN(c3ccccn3)C2)cc1 [35a] with hCA VII (Homo sapiens): 9.7

Measured Ki for this entry NS(=O)(=O)c1ccc(NC(=O)N[C@@H]2CCN(c3ccc(C(F)(F)F)cn3)C2)cc1 [45a] on hCA VII (Homo sapiens): 8.2

Per the reported hCA VII (Homo sapiens) data, NS(=O)(=O)c1cccc(NC(=O)N[C@H]2CCN(c3cccc([N+](=O)[O-])n3)C2)c1 [44b] has Ki of 17.7

Value sought: Ki, system hCA VII (Homo sapiens), item NS(=O)(=O)c1ccc(N2CC[C@H](NC(=O)Nc3c(F)cc(F)cc3Br)C2)nc1 [22b] . Result: 14

Value (Ki, hCA VII (Homo sapiens)) for record NS(=O)(=O)c1ccc(NC(=O)N[C@@H]2CCN(c3cccc([N+](=O)[O-])n3)C2)cc1 [43a] = 164

---

Below: a set of entries, each annotated with reported pKi.
- Target under test: hCA IX (Homo sapiens)
- Construct: made in house
- Assay type: biochemical
// pKi: -log10(molar conc.)

// below: answered compounds
Compound: NS(=O)(=O)c1cccc(NC(=S)N[C@H]2CCN(c3ccc(C(F)(F)F)cn3)C2)c1 [40b]
Reading: 8.10
//
Compound: COc1ccccc1NC(=O)N[C@@H]1CCN(c2ccc(S(N)(=O)=O)cn2)C1 [18a]
Reading: 7.44
//
Compound: NS(=O)(=O)c1ccc(N2CC[C@H](NC(=O)Nc3ccc([N+](=O)[O-])cc3)C2)nc1 [19b]
Reading: 7.17

Please examine the following record next.
Entry NS(=O)(=O)c1ccc(N2CC[C@@H](NC(=S)Nc3ccc(C4c5ccc(O)cc5Oc5cc(O)ccc54)c(C(=O)O)c3)C2)nc1 [17a] ; pKi = 7.49

---

- Target under test: hCA II (Homo sapiens)
Lab note: class by Ki, see low-valued = under 10 nM, mid-valued = from 10 nM up to 50 nM, high-valued = 50 nM and over

Input: Category of NS(=O)(=O)c1cccc(NC(=O)N[C@@H]2CCN(c3cccc([N+](=O)[O-])n3)C2)c1 [44a] :
Output: low-valued

Input: Exercise: read the entry NS(=O)(=O)c1ccc(NC(=S)N[C@@H]2CCN(c3cccc([N+](=O)[O-])n3)C2)cc1 [37a] and state which class it falls under.
Output: low-valued

Input: Please indicate the class for NS(=O)(=O)c1ccc(N2CC[C@H](NC(=O)Nc3c(F)cc(F)cc3Br)C2)nc1 [22b] based on its Ki.
Output: high-valued

Input: Class? Entry: COc1ccccc1NC(=O)N[C@H]1CCN(c2ccc(S(N)(=O)=O)cn2)C1 [18b]
Output: high-valued

Input: Any idea which band NS(=O)(=O)c1ccc(NC(=O)N[C@@H]2CCN(c3cccc([N+](=O)[O-])n3)C2)cc1 [43a] is in?
Output: low-valued

Input: Each compound maps to one class by Ki. Which class for NS(=O)(=O)c1ccc(NC(=O)N[C@H]2CCN(c3cccc([N+](=O)[O-])n3)C2)cc1 [43b] ?
Output: mid-valued

Input: Category of NS(=O)(=O)c1ccc(N2CC[C@H](NC(=O)NS(=O)(=O)c3ccccc3Cl)C2)nc1 [25b] , please.
Output: mid-valued

Input: Class? Entry: NS(=O)(=O)c1ccc(N2CC[C@H](NC(=O)Nc3ccc([N+](=O)[O-])cc3)C2)nc1 [19b]
Output: high-valued

Input: Please report the category associated with NS(=O)(=O)c1ccc(N2CC[C@H](NC(=S)Nc3ccccc3F)C2)nc1 [21b] , nothing else.
Output: mid-valued

---

For UniProt:P00915, measured Ki is reported for the entries below.
Sequence (P00915 whole entry): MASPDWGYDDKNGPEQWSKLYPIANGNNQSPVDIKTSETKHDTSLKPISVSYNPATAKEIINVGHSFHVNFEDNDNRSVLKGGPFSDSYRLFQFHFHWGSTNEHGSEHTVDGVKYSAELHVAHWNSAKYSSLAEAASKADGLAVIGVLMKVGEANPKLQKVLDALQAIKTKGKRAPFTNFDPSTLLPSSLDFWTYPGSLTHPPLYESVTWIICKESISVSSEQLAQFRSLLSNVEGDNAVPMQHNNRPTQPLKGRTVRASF
All answers are understood in nM, so give the number only.

Below, each entry is followed by its recorded Ki result.
Compound: NS(=O)(=O)c1cccc(NC(=O)N[C@H]2CCN(c3ccc(C(F)(F)F)cn3)C2)c1 [46b]
Quantity unit: nM
Ki: 306

Compound: COc1ccccc1NC(=O)N[C@@H]1CCN(c2ccc(S(N)(=O)=O)cn2)C1 [18a]
Quantity unit: nM
Ki: 73.5

Compound: NS(=O)(=O)c1cccc(NC(=O)N[C@@H]2CCN(c3ccccn3)C2)c1 [42a]
Quantity unit: nM
Ki: 9.6

Compound: NS(=O)(=O)c1ccc(NC(=O)N[C@@H]2CCN(c3ccc(C(F)(F)F)cn3)C2)cc1 [45a]
Quantity unit: nM
Ki: 72.4

Compound: NS(=O)(=O)c1ccc(N2CC[C@H](NC(=O)Nc3ccccc3Cl)C2)nc1 [12b]
Quantity unit: nM
Ki: 393

// NS(=O)(=O)c1ccc(NC(=S)N[C@H]2CCN(c3cccc([N+](=O)[O-])n3)C2)cc1 [37b] : Ki value = 54.5

Memo: NS(=O)(=O)c1cccc(NC(=S)N[C@H]2CCN(c3ccc(C(F)(F)F)cn3)C2)c1 [40b] , reported Ki: 413

Input NS(=O)(=O)c1ccc(N2CC[C@H](NC(=O)Nc3ccccc3F)C2)nc1 [11b] . Output Ki: 476

---

- Target under test: hCA XII (Homo sapiens)
For each record, check the reported Ki: if it is below 40 nM write MET, else write NOT MET.

Some solved entries appear below for comparison.
Compound: NS(=O)(=O)c1ccc(N2CC[C@H](NC(=S)Nc3ccc(C4c5ccc(O)cc5Oc5cc(O)ccc54)c(C(=O)O)c3)C2)nc1 [17b]
Label: MET
//
Compound: NS(=O)(=O)c1ccc(NC(=S)N[C@H]2CCN(c3ccc(C(F)(F)F)cn3)C2)cc1 [39b]
Label: MET
//
Compound: COc1ccccc1NC(=O)N[C@H]1CCN(c2ccc(S(N)(=O)=O)cn2)C1 [18b]
Label: MET
//
Compound: NS(=O)(=O)c1ccc(N2CC[C@@H](NC(=O)NS(=O)(=O)c3ccccc3)C2)nc1 [24a]
Label: NOT MET
//
Compound: NS(=O)(=O)c1ccc(NC(=O)N[C@@H]2CCN(c3ccc(C(F)(F)F)cn3)C2)cc1 [45a]
Label: MET
//
Compound: NS(=O)(=O)c1ccc(N2CC[C@H](NC(=O)Nc3c(F)cc(F)cc3Br)C2)nc1 [22b]
Label: MET

Input: Say whether its Ki is strictly beneath 40 nM. Entry: NS(=O)(=O)c1ccc(N2CC[C@@H](NC(=S)Nc3ccc(C4c5ccc(O)cc5Oc5cc(O)ccc54)c(C(=O)O)c3)C2)nc1 [17a]
Output: MET

Input: Hello, I'm reviewing records and need to know if Ki of NS(=O)(=O)c1ccc(N2CC[C@@H](NC(=O)Nc3ccc(Cl)c(Cl)c3)C2)nc1 [14a] is below 40 nM. Could you check?
Output: MET

Input: Regarding NS(=O)(=O)c1ccc(N2CC[C@@H](NC(=O)Nc3ccccc3F)C2)nc1 [11a] , kindly confirm whether its Ki is beneath 40 nM.
Output: NOT MET

Input: Could you please tell me whether Ki recorded for NS(=O)(=O)c1cccc(NC(=O)N[C@@H]2CCN(c3ccccn3)C2)c1 [42a] is less than 40 nM?
Output: MET

Input: Input NS(=O)(=O)c1ccc(N2CC[C@@H](NC(=O)Nc3cc(C(F)(F)F)cc(C(F)(F)F)c3)C2)nc1 [16a] ; condition: Ki strictly below 40 nM. Does it hold?
Output: MET

Input: Quick check: does NS(=O)(=O)c1ccc(N2CC[C@H](NC(=O)Nc3ccc4c(c3)OCCO4)C2)nc1 [15b] have Ki under 40 nM?
Output: NOT MET

---

- Target under test: hCA XII (Homo sapiens, UniProt O43570)
- Sequence (O43570 25-354): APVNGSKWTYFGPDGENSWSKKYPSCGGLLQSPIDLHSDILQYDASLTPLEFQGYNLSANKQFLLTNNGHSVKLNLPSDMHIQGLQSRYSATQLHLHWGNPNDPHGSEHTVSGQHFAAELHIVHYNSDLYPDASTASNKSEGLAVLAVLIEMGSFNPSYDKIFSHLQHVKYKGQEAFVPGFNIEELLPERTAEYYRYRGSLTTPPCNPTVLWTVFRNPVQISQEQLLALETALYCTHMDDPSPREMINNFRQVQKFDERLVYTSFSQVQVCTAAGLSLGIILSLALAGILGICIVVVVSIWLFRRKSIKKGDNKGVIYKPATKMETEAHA
Catalogue of log10 Ki values
The base-10 logarithm of Ki, taken with Ki in nM, is what appears here.

Compound: NS(=O)(=O)c1ccc(N2CC[C@H](NC(=O)Nc3ccc([N+](=O)[O-])cc3)C2)nc1 [19b]
log10 Ki: 0.93

Compound: NS(=O)(=O)c1ccc(NC(=S)N[C@@H]2CCN(c3cccc([N+](=O)[O-])n3)C2)cc1 [37a]
log10 Ki: 2.61

Compound: NS(=O)(=O)c1ccc(NC(=O)N[C@@H]2CCN(c3cccc([N+](=O)[O-])n3)C2)cc1 [43a]
log10 Ki: 1.92

Compound: NS(=O)(=O)c1ccc(N2CC[C@@H](NC(=O)Nc3ccc4c(c3)OCCO4)C2)nc1 [15a]
log10 Ki: 0.83

Compound: NS(=O)(=O)c1ccc(NC(=O)N[C@@H]2CCN(c3ccccn3)C2)cc1 [41a]
log10 Ki: 1.50

Compound: NS(=O)(=O)c1ccc(N2CC[C@H](NC(=O)Nc3ccccc3Cl)C2)nc1 [12b]
log10 Ki: 1.62

Compound: NS(=O)(=O)c1ccc(N2CC[C@@H](NC(=O)Nc3ccc(C(F)(F)F)cc3)C2)nc1 [20a]
log10 Ki: 1.65

Compound: NS(=O)(=O)c1ccc(N2CC[C@@H](NC(=O)Nc3ccc([N+](=O)[O-])cc3)C2)nc1 [19a]
log10 Ki: 1.76

log10 Ki value, target or system hCA XII (Homo sapiens, UniProt O43570), for NS(=O)(=O)c1ccc(N2CC[C@@H](NC(=O)Nc3c(F)cc(F)cc3Br)C2)nc1 [22a] : 0.91

Given the compound NS(=O)(=O)c1cccc(NC(=O)N[C@@H]2CCN(c3ccc(C(F)(F)F)cn3)C2)c1 [46a] and test system hCA XII (Homo sapiens, UniProt O43570), the measured log10 Ki is 0.82

Observed log10 Ki on hCA XII (Homo sapiens, UniProt O43570), entry NS(=O)(=O)c1ccc(N2CC[C@H](NC(=O)Nc3cc(C(F)(F)F)cc(C(F)(F)F)c3)C2)nc1 [16b] , equals 0.97

Query NS(=O)(=O)c1ccc(N2CC[C@H](NC(=O)Nc3ccc(Oc4ccccc4)cc3)C2)nc1 [13b] on hCA XII (Homo sapiens, UniProt O43570); log10 Ki returned: 1.95

The value of log10 Ki recorded for COc1ccccc1NC(=O)N[C@@H]1CCN(c2ccc(S(N)(=O)=O)cn2)C1 [18a] when tested on hCA XII (Homo sapiens, UniProt O43570) reads 1.86

Measured log10 Ki for this entry NS(=O)(=O)c1ccc(NC(=S)N[C@@H]2CCN(c3ccc(C(F)(F)F)cn3)C2)cc1 [39a] on hCA XII (Homo sapiens, UniProt O43570): 1.80

Bench note, hCA XII (Homo sapiens, UniProt O43570): entry NS(=O)(=O)c1ccc(N2CC[C@@H](NC(=O)Nc3ccccc3Cl)C2)nc1 [12a] , its log10 Ki = 1.92

The compound NS(=O)(=O)c1cccc(NC(=O)N[C@H]2CCN(c3ccc(C(F)(F)F)cn3)C2)c1 [46b] , tested on hCA XII (Homo sapiens, UniProt O43570), showed log10 Ki of 0.95

// compound NS(=O)(=O)c1ccc(NC(=O)N[C@H]2CCN(c3cccc([N+](=O)[O-])n3)C2)cc1 [43b] , assay hCA XII (Homo sapiens, UniProt O43570), log10 Ki value: 0.96
